System: CAKI-1 renal
measurement.notes: NCI-60 one-dose screen, 48 h
particulars: 10 µM unless noted
About 83,000 compounds went through this panel and 20% of them were active in at least one assay; those are over-represented in the sample as a whole. The source made the active and inactive calls. The calls were made as follows: active = growth percent below 10; inactive = the rest.
Entry note: the call must match one of active, inactive

[
  {
    "molecule": "C#CCn1c(C)cc(C)c(C#N)c1=O",
    "system.under.test": "CAKI-1 renal",
    "label": "inactive"
  }
]

Query string: For "CN1CCN(c2ccc3nc(-c4[nH]ncc4Nc4ncnc5[nH]ccc45)[nH]c3c2)CC1" , what call appears in the results of this test?
Result string: active

Query string: For "Cc1cccc2c1NC(=O)[C@@]21[C@H](C(=O)c2ccccc2)[C@]2(C(=O)Nc3ccccc32)[C@H]2CCCN21" , what call appears in the results of this test?
Result string: inactive

Query string: For "COc1cccc(-c2nn(-c3ccccc3)cc2-c2ccnc(NCCNS(=O)(=O)c3ccccc3)c2)c1" , what call appears in the results of this test?
Result string: inactive

Query string: For Cc1ccc(-c2nc3ccc(Cl)cc3c(=O)n2N2C(=O)CSC2c2ccccc2Cl)cc1 (stereo not given) , what call appears in the results of this test?
Result string: inactive

Query string: For "Brc1cnc2[nH]cc(-c3nnc(-c4ccccc4)o3)c2c1" , what call appears in the results of this test?
Result string: inactive

Query string: For N#CC1=C(N)Oc2ccc3ccccc3c2C1c1ccccc1Cl (stereo not given) , what call appears in the results of this test?
Result string: inactive

* * *

Tested on: SW-620 colon
measurement.notes: NCI-60 one-dose screen, 48 h
particulars: 10 µM unless noted
The panel holds about 83,000 compounds, 20% with a hit somewhere; the sample as a whole holds those more often. Calls of active or inactive are those of the source. Rule for the calls: active = growth percent below 10; inactive = the rest.
Entry note: the call must match one of active, inactive

[
  {
    "molecule": "CN(C)CCCCC(C(=O)CBr)(c1ccccc1)c1ccccc1",
    "label": "active"
  }
]

Query string: For "Cc1cc2nc3c4cc(Cl)ccc4n(CCN(C)C)c3nc2cc1C" , what call appears in the results of this test?
Result string: active

Query string: For "CC(C)(C)n1cc(-c2ccnc(NCCCNS(=O)(=O)c3ccc(Cl)cc3)c2)c(-c2cccc(F)c2)n1" , what call appears in the results of this test?
Result string: inactive

Query string: For "CCC(=O)c1c(C)[nH]c(C)c1C" , what call appears in the results of this test?
Result string: inactive

Query string: For "CC[C@]12C=CCN3CC[C@@]4(c5cc([C@H]6CCC(=O)N6)c(OC)cc5N(C)[C@H]4[C@@](O)(C(=O)OC)[C@@H]1OC(C)=O)[C@@H]32" , what call appears in the results of this test?
Result string: inactive

Query string: For CC(=O)O[C@H]1CC[C@@]2(C)[C@@H](CC[C@@H]3[C@@H]2CC(=O)[C@@]2(C)[C@H]3C[C@@H](C3CCCC3=O)[C@@H]2C(C)=O)C1 (some centres undefined) , what call appears in the results of this test?
Result string: inactive

Query string: For "C[C@H]1[C@H]2C3=CC[C@@H]4[C@@]5(C)C/C(=C/c6ccco6)C(=O)C(C)(C)[C@@H]5CC[C@@]4(C)[C@]3(C)CC[C@@]2(C(=O)N2CCOCC2)CC[C@@H]1C" , what call appears in the results of this test?
Result string: inactive

Query string: For "Cn1cc(-c2csc(-c3cn(CCN)c4ccccc34)n2)c2cccnc21" , what call appears in the results of this test?
Result string: inactive

Query string: For CCCCC/C(=C\c1ccccc1)C1OC(C)C(C)O1 (centres undefined) , what call appears in the results of this test?
Result string: inactive

From: PubChem BioAssay (NCI)
